Hey, just so you know, these numbers are from patent US20230127046A1.

- system name: recombinant human G9a protein (Homo sapiens, UniProt Q96KQ7)
- Construct: purchased BPS Bioscience Inc. #51001
- Sequence (Q96KQ7 785-1210 limits assumed): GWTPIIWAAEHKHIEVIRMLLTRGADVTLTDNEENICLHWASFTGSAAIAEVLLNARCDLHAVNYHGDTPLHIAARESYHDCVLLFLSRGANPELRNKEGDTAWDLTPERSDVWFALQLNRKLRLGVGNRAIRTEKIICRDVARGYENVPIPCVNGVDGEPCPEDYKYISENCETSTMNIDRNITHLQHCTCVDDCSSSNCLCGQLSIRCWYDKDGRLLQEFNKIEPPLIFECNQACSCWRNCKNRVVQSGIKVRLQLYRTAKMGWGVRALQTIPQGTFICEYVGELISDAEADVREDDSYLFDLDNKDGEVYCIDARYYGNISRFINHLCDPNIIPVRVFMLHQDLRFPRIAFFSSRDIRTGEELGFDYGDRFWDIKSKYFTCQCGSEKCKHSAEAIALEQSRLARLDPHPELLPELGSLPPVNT
- test details: G9a inhibitory activity test (ALPHA)
- Assay type: biochemical
- measurement parameters: read-out: Inhibitory activity (G9a IC50)
IC50 overview

Check out these entries, answers already filled in.
Form field: reported IC50 of CCCC[C@@H](CNc1ccccc1)NC(=O)c1[nH]c2c(c1C)C(=O)CC(C)(C)C2
≥ 200 nM

Form field: reported IC50 of Cc1c(C(=O)N[C@@H](CCC2CC2)C(=O)Nc2ccccc2)[nH]c2c1C(=O)CC(C)(C)C2
< 50 nM

Form field: reported IC50 of CSCC[C@H](NC(=O)c1[nH]c2c(c1C)C(=O)CC(C)(C)C2)C(=O)Nc1ccccc1
≥ 200 nM

Form field: reported IC50 of CCCCC(NC(=O)Cc1ccccc1C)C(=O)Nc1ccc(OC2CCN(C)CC2)nc1 (stereo not shown)
≥ 200 nM

Form field: reported IC50 of CCCC[C@H](NC(=O)c1[nH]c2c(c1C)C(=O)CC1(CCCCC1)C2)C(=O)N[C@@H](C)c1ccccc1
≥ 200 nM

***
Form field: reported IC50 of CCCCC(NC(=O)c1ccc(N2CCN(C)CC2)cc1)C(=O)Nc1ccc(OC2CCN(C)CC2)nc1 (stereo not shown)
≥ 200 nM

Form field: reported IC50 of Cc1ccc(NC(=O)[C@H](CCC2CC2)NC(=O)c2[nH]c3c(c2C)C(=O)CC(C)(C)C3)cn1
< 50 nM
